Below, each of the molecules is paired with its reported TGI value.
# Test system: OVCAR-5 ovarian
# Assay method text: NCI tumour cell line growth inhibition, 48 h

Solved cases below.
{"Molecule": "Fc1ccc2[nH]cc(-c3nc(-c4c[nH]c5ncccc45)cs3)c2c1", "Assay result": "> 100 µM"}
{"Molecule": "Cc1c2c(c(C)n1-c1ccccc1)C(=O)N(CCCCN1CCN(c3ccccc3)CC1)C2=O", "Assay result": "> 100 µM"}
{"Molecule": "COc1ccc(C(=O)c2cc(OC)c(OC)c(OC)c2)cc1", "Assay result": "> 100 µM"}

Asked: TGI for CCc1ccc(N=Cc2cc(OC)c(OC)c(OC)c2)cc1 ?
Given back: > 100 µM

Asked: TGI for Cc1cc2nc(C(C)C(=O)c3ccc(Cl)cc3)c(=O)[nH]c2cc1C (stereo not given) ?
Given back: > 100 µM

Asked: TGI for CCSCC1CC(O)(c2ccccc2)C(c2ccccc2)C(c2ccc(Cl)cc2)O1 (stereo not given) ?
Given back: 3.54 µM

Asked: TGI for CO/N=C(\C)c1ccc(Nc2c3ccccc3nc3occc23)cc1 ?
Given back: 32.2 µM

Asked: TGI for COC(=O)C1=C(c2ccc(OC)c(OC)c2)OC(c2ccc(OC)c(OC)c2)C1 (stereo not given) ?
Given back: > 100 µM

Asked: TGI for N=C(N)c1ccc(OCc2cccc(COc3ccc(C(=N)N)cc3)c2)cc1 ?
Given back: > 100 µM

Asked: TGI for CC1(C)CCC[C@@]2(C)C1CCC1(C)C(CCc3ccoc3)/C(=C/OS(=O)(=O)O)CCC12 (stereo not given in full) (tested in a mixture with another compound) ?
Given back: > 100 µM

----------
# Tested on: M14 melanoma
# Assay method text: NCI tumour cell line growth inhibition, 48 h
Measurement type: TGI

{"Molecule": "CC(C)(C)c1cc(C(=O)Nc2cc(Br)c(Br)cc2S(N)(=O)=O)cc(C(C)(C)C)c1O", "Assay result": "35.9 µM"}
{"Molecule": "CCOC(=O)c1cnn2c1ncc1c(=O)n(NC(N)=O)ccc12", "Assay result": "> 100 µM"}
{"Molecule": "C=C(C)C(=O)O[C@H]1C/C(CO)=C/CCC(=C)C(OC(C)=O)[C@H]2OC(=O)C(=C)[C@H]12 (stereo not given in full)", "Assay result": "12.5 µM"}
{"Molecule": "Cc1ccc(S(=O)(=O)OC2CCN(C)CC2)cc1", "Assay result": "> 100 µM"}

Then there is this molecule:
Asked: Notebook: pull reported TGI for M14 melanoma, entry O=[N+]([O-])c1nc(-c2ccccn2)[nH]c1[N+](=O)[O-]
Given back: > 100 µM

----------
Below, each of the compounds is paired with its reported GI50 value.
# System: HS 578T breast
# Assay method text: NCI tumour cell line growth inhibition, 48 h

Solved cases below.
{"Mol": "CCCCON(OC(=O)c1ccccc1)C(=O)c1ccccc1", "GI50": "> 100 µM"}
{"Mol": "Cc1nc(-c2cccc(Nc3nc(-c4ccc(Cl)cc4)cs3)c2)cs1", "GI50": "14.1 µM"}
{"Mol": "O=C1C(Cl)=C(Nc2cccc(Cl)c2)C(=O)N1Cc1ccccc1", "GI50": "6.34 µM"}
{"Mol": "Nc1c(C(=O)c2cccc(CCCN3CCOCC3)c2)cnn1-c1ccc(F)cc1", "GI50": "> 25 µM"}

Asked: GI50 for COc1ccc(-c2cc(-c3cc(Cl)ccc3Cl)nc3n[nH]c(N)c23)cc1 ?
Given back: 25.3 µM

Asked: GI50 for O=C(Nc1ccc(Cl)c(Cl)c1)c1cccc(NC2=C(Cl)C(=O)N(Cc3ccccc3)C2=O)c1 ?
Given back: 45.4 µM

Asked: GI50 for O=C(NC1CCN(Cc2ccccc2)CC1)c1cc(-c2ccncc2)nc2ccc(Cl)cc12 ?
Given back: 14.4 µM
